- measured_on: hA2b/CHO (Homo sapiens (Human), UniProt P29275)
- Sequence (P29275 whole entry): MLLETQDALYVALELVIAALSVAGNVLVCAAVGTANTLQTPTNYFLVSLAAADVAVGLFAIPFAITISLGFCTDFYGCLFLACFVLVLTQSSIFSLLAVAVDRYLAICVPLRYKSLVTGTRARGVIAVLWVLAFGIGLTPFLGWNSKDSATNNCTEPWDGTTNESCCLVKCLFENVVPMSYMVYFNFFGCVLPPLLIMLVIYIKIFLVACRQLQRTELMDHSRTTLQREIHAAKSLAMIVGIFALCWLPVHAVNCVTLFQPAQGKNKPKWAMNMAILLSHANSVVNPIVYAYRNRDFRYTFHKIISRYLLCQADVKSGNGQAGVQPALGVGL
- test_summary: cAMP inhibition assay in hA2b/CHO cells, 10 μM adenosine;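 also: cells exposed to compound 30 min at 37 °C, then stimulated with adenosine a further 30 min, cAMP read after 60 min at room temperature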
- Type: cell-based
- experimental_context: read-out: cAMP & FLIPR IC50 (nM) hA2b

# molecule, inequality_sign, IC50 / nM
records = [
    ("CCc1ccccc1CNC(=O)c1nc(-c2cc(C)nc(C)c2)c(-c2ccc(F)cc2)nc1N [Example 84]", "≥", 10000),
    ("Cc1cc(-c2nc(C(=O)NCc3c(F)cccc3F)c(N)nc2-c2cnn(C)c2)cc(C)n1 [Example 64]", "≥", 10000),
    ("Cc1cnc2ccc(-c3nc(C(=O)NCC4CCCCN4C)c(N)nc3-c3ncco3)cn12 (single isomer, unassigned; isomer 1) [Example 124]", "≥", 10000),
    ("Cc1cccc(CNC(=O)c2nc(-c3ccc(=O)n(C)c3)c(-c3ncco3)nc2N)n1 [Example 18]", "≥", 10000),
    ("Cc1cnc2ccc(-c3nc(C(=O)NCC4CC(=O)N(C)C4)c(N)nc3-c3ncco3)cn12 (single isomer, unassigned; isomer 1) [Example 213]", "=", 2530),
    ("Cc1cnc2ccc(-c3nc(C(=O)NCC4(C)CCOC4)c(N)nc3-c3ncco3)cn12 (single isomer, unassigned; isomer 1) [Example 251]", "=", 657),
    ("Cc1cnc2ccc(-c3nc(C(=O)NCc4cccc(N5CC(N(C)C)C5)n4)c(N)nc3-c3ncco3)cn12 [Example 111]", "=", 81),
]
